IC50 by entry:
# Subject Of Test: various mutants of kinase EGFR (BaF3 cell lines stably transfected with kinase) (Homo sapiens, UniProt P00533, C797S/L858R/T790M)
# Construct: expressed in transfected cells; host or cells: BaF3
# Sequence (P00533 25-1210 T790M/C797S/L858R): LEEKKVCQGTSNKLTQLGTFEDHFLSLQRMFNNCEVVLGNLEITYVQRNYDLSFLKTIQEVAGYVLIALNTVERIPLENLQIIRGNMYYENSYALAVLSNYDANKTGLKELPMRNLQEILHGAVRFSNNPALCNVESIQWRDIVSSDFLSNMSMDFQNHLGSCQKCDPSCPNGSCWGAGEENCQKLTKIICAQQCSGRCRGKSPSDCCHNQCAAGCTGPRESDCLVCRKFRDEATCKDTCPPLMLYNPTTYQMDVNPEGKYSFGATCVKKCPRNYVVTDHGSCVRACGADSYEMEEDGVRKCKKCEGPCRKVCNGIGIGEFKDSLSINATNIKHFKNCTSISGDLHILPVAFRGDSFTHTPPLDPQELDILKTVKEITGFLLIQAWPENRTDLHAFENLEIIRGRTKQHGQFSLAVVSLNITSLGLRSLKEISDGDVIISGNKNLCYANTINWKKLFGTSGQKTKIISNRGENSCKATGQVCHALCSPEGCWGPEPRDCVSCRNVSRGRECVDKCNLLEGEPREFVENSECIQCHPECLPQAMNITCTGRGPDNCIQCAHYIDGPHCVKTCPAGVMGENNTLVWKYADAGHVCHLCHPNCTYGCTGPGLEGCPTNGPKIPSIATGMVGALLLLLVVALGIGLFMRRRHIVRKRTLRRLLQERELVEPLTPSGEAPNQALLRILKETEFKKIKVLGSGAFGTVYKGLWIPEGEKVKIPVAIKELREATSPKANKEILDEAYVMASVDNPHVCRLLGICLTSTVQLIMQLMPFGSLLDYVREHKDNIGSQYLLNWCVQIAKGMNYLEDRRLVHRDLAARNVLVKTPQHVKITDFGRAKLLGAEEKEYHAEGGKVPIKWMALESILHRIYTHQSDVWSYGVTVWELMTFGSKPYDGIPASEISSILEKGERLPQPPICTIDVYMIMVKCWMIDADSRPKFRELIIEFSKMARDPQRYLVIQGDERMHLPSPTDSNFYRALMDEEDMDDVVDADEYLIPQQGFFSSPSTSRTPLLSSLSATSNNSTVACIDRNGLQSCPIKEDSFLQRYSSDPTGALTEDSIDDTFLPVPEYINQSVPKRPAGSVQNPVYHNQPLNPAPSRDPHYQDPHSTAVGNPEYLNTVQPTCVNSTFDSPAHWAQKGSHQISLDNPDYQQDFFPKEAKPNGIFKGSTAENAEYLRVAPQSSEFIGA
# Assay Notes: Growth inhibitory activity of compounds on BaF3 cell lines stably transfected with kinase (MTS, 48 h)
# Assay type: cell-based
# Condition Description: BaF3 cell line stably transfected with EGFR L858R/T790M/C797S, read-out: L858R/T790M/ C797S growth inhibitory activity IC50

Examples with their reported IC50 follow.
Problem: Find the measured IC50 of COc1ccc(N2CCC(O)CC2)cc1Nc1ncc(C)c(Nc2ccc3nccnc3c2N(C)S(C)(=O)=O)n1 [Compound I-362] and report it.
Result: ≤ 50 nM

Problem: Kindly indicate its recorded IC50. Item: COc1ccc(N2CCC(O)CC2)cc1Nc1nc(Nc2ccc3nccnc3c2N(C)S(C)(=O)=O)c2sccc2n1 [II-1-45]
Result: 50 to 500 nM

Problem: For the compound CC(C)n1ccc(Nc2ncc(Br)c(Nc3ccc4nccnc4c3N(C)S(C)(=O)=O)n2)n1 [Compound I-384] , give its reported IC50.
Result: 50 to 500 nM

Next:
Problem: Input CCOc1cnc(Nc2cc(CC)c(N3CCC(N4CCN(C)CC4)CC3)nc2OC)nc1Nc1ccc2nccnc2c1N(C)S(C)(=O)=O [Compound I-338] , output reported IC50.
Result: 50 to 500 nM

====

# Subject Of Test: various mutants of kinase EGFR (BaF3 cell lines stably transfected with kinase) (Homo sapiens, UniProt P00533, T790M, form not given)
# Construct: other: BaF3 cells stably transfected with EGFR Δ19Del/T790M; MTS, 48 h; other: BaF3 cell line stably transfected with EGFR Δ19Del/T790M; MTS, 48
# Sequence (P00533 with tags, fused parts or gaps DEL746-750/T790M, form open): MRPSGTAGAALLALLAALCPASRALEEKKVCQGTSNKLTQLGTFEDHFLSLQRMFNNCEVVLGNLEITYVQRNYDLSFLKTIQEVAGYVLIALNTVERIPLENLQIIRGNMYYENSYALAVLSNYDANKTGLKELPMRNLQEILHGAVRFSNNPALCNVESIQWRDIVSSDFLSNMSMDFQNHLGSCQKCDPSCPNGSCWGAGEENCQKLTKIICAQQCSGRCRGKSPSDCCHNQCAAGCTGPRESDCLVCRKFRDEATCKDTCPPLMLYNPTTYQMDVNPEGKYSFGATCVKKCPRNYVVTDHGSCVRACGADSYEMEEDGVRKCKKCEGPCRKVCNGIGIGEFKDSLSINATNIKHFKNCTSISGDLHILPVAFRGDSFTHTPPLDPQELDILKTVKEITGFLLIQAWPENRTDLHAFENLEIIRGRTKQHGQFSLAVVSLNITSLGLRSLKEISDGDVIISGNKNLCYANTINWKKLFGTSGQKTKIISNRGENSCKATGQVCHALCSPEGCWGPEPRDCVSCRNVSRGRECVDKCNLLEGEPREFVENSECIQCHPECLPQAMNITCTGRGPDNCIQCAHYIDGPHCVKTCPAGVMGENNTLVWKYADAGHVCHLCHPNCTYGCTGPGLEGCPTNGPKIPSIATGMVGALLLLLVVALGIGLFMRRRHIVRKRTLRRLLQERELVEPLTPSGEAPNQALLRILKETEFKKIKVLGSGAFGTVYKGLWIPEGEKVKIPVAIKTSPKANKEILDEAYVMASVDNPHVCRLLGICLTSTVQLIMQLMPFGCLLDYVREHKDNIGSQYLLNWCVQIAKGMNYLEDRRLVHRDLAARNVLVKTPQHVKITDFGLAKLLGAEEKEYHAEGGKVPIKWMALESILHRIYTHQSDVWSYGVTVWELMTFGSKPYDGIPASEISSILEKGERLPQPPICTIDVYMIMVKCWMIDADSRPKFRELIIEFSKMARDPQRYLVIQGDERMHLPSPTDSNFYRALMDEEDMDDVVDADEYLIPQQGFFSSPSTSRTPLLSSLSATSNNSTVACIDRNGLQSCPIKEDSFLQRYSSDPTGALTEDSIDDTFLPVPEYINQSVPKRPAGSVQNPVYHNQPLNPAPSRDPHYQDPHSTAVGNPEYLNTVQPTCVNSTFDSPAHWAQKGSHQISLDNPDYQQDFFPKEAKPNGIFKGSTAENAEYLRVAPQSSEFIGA
# Assay Notes: Growth inhibitory activity of compounds on BaF3 cell lines stably transfected with kinase (MTS, 48 h)
# Type: cell-based
# Condition Description: BaF3 cells stably transfected with EGFR Δ19Del/T790M, read-out: IC50, growth inhibition, Δ19Del/T790M
pIC50: −log10 of the molar value.
Overview of recorded pIC50 for various molecules

Known pIC50 results, listed for orientation:
Problem: Give pIC50 for the following molecule: COc1cc(N2CCC(N3CCN(C)CC3)CC2)c(CC2CC2)cc1Nc1ncc(C(F)(F)F)c(Nc2ccc3nccnc3c2N(C)S(C)(=O)=O)n1 [Compound I-203]
Result: ≥ 7.30

Problem: Could you please provide reported pIC50 for C=Cc1cc(Nc2ncc(Cl)c(Nc3ccc4nccnc4c3N(C)S(=O)(=O)CC)n2)c(OC(F)(F)F)cc1N1CCC(N2CCN(C)CC2)CC1 [Compound I-295] ? Thanks!
Result: 6.30 to 7.30

Problem: Indicate the recorded pIC50 value for this molecule: COc1cc(N2CCC(N(C)C)C2)c(C)cc1Nc1ncc(C(F)(F)F)c(Nc2ccc3nccnc3c2N(C)S(C)(=O)=O)n1 (stereo not drawn) [Compound I-209]
Result: ≥ 7.30

Others:
Problem: Note down pIC50 recorded for COc1cc(N2CCC(N3CCN(C)CC3)CC2)c(Cc2ccccc2)cc1Nc1ncc(Br)c(Nc2ccc3nccnc3c2N(C)S(C)(=O)=O)n1 [Compound I-11]
Result: 5.60 to 6.30

Problem: Provide only the value of recorded pIC50 for CCc1cc(Nc2ncc(Cl)c(Nc3ccc4nccnc4c3N(C3CC3)S(C)(=O)=O)n2)c(OC(F)(F)F)cc1N1CCC(N2CCN(C)CC2)CC1 [Compound I-161]
Result: 6.30 to 7.30

Problem: Supply recorded pIC50 for COc1cc(N2CCC(N3CCN(C)CC3)CC2)c(CC2CC2)cc1Nc1ncc(Cl)c(Nc2ccc3nccnc3c2N(C)S(=O)(=O)C(C)C)n1 [Compound I-254] here.
Result: ≥ 7.30

Problem: Let me know recorded pIC50 for CCc1cc(Nc2ncc(Cl)c(Nc3ccc4nccnc4c3N(C)S(=O)(=O)C(C)C)n2)c(OC)cc1N1CCC(N(C)C)C1 (stereo not drawn) [Compound I-143] , thanks.
Result: ≥ 7.30

Problem: Check the records and state pIC50 for COc1cc(N2CCC(N3CCN(C)CC3)CC2)c(C)cc1Nc1ncc([N+](=O)[O-])c(Nc2ccc3nccnc3c2N(C)S(C)(=O)=O)n1 [Compound I-31]
Result: 6.30 to 7.30

Problem: Answer with the recorded pIC50 for the molecule listed here: COc1cc(N2CCN(C)CC2)c(C)cc1Nc1ncc(F)c(Nc2ccc3nccnc3c2N(C)S(C)(=O)=O)n1 [Compound I-185]
Result: 6.30 to 7.30

Problem: Annotate the molecule CCc1cc(Nc2ncc(Br)c(Nc3ccc4nccnc4c3N(C)S(=O)(=O)C3CC3)n2)c(OC)cc1N1CCC(N2CCN(C)CC2)CC1 [Compound I-105] with its measured pIC50.
Result: ≥ 7.30

Problem: Hello, please tell me recorded pIC50 for this one: CCN(c1c(Nc2nc(Nc3ccc(N4CCC(N5CCN(C)CC5)CC4)cc3OC)ncc2Cl)ccc2nccnc12)S(C)(=O)=O [Compound I-224]
Result: 6.30 to 7.30

Problem: Respond only with pIC50 recorded for CCc1cc(Nc2ncc(F)c(Nc3ccc4nccnc4c3N(C)S(C)(=O)=O)n2)c(OC)nc1N1CCC(N2CCN(C)CC2)CC1 [Compound I-177]
Result: ≥ 7.30

====

# Subject Of Test: various mutants of kinase EGFR (BaF3 cell lines stably transfected with kinase) (Homo sapiens, UniProt P00533, L858R)
# Construct: expressed in transfected cells; host or cells: BaF3
# Sequence (P00533 25-1210 L858R): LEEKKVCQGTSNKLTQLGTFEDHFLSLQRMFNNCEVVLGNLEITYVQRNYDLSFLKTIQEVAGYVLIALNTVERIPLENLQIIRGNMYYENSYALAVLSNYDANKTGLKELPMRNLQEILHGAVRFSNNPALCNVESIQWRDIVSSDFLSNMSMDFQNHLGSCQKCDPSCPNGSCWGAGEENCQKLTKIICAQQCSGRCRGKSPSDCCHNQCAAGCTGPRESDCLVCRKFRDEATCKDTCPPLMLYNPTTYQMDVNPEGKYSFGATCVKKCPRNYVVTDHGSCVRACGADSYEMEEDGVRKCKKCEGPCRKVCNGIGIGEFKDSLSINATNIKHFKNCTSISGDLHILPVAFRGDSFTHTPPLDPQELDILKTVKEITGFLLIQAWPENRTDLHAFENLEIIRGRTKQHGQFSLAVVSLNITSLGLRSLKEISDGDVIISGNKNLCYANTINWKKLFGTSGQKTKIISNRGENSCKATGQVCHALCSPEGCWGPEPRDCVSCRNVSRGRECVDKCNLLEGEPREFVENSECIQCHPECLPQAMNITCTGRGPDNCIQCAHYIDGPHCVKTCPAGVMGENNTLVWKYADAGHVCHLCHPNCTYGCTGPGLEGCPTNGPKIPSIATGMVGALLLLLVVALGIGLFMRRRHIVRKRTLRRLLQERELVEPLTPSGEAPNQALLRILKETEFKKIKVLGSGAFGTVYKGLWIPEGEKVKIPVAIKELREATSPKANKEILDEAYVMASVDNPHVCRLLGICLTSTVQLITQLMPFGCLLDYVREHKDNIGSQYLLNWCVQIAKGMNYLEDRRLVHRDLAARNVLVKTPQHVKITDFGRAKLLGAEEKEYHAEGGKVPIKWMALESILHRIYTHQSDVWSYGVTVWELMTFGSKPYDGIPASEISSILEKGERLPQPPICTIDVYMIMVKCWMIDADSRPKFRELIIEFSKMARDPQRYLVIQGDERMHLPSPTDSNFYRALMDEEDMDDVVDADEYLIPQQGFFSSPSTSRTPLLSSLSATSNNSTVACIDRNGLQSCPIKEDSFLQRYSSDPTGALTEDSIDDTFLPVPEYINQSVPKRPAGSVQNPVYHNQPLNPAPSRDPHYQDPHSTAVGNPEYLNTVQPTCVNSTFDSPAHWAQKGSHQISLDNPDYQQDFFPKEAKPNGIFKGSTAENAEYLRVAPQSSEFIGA
# Assay Notes: Growth inhibitory activity of compounds on BaF3 cell lines stably transfected with kinase (MTS, 48 h)
# Type: cell-based
# Condition Description: BaF3 cells stably transfected with EGFR L858R, read-out: IC50, growth inhibition, L858R
Attribute Measured: IC50

Reference set, count: 6
Problem: Fill in reported IC50 for this entry: CCc1cc(Nc2ncc(Br)c(Nc3ccc4nccnc4c3N(C)S(C)(=O)=O)n2)c(OC)nc1N1CCC(N2CCN(C)CC2)CC1 [Compound I-6]
Result: ≤ 50 nM

Problem: Specify measured IC50 for CCc1cc(Nc2ncc(Cl)c(Nc3ccc4nccnc4c3N(CC)S(C)(=O)=O)n2)c(OC(F)(F)F)cc1N1CCC(N2CCN(C)CC2)CC1 [Compound I-111] .
Result: 50 to 500 nM

Problem: Consider the compound COc1cc(N2CCN(C)CC2)c(C)cc1Nc1ncc(C(F)(F)F)c(Nc2ccc3nccnc3c2N(C)S(C)(=O)=O)n1 [Compound I-207] . State its measured IC50.
Result: 50 to 500 nM

Problem: # return recorded IC50 for input COc1cc(N2CCC(N3CCN(C)CC3)CC2)c(C)cc1Nc1ncc(F)c(Nc2ccc3nccnc3c2N(C)S(C)(=O)=O)n1 [Compound I-25]
Result: ≤ 50 nM

Problem: Find the measured IC50 of C=Cc1cc(Nc2ncc(Cl)c(Nc3ccc4nccnc4c3N(C)S(=O)(=O)CC)n2)c(OC(F)(F)F)cc1N1CCC(N2CCN(C)CC2)CC1 [Compound I-295] and report it.
Result: 50 to 500 nM

Problem: Tell me IC50 reported for CCN(c1c(Nc2nc(Nc3ccc(N4CCC(N5CCN(C)CC5)CC4)nc3OC)ncc2Br)ccc2nccnc12)S(C)(=O)=O [Compound I-296]
Result: 50 to 500 nM

New cases:
Problem: Retrieve IC50 measured for CCc1cc(Nc2ncc(C)c(Nc3ccc4nccnc4c3N(C)S(C)(=O)=O)n2)c(OC)nc1N1CCC(N2CCN(C)CC2)CC1 [Compound I-278] and print it.
Result: ≤ 50 nM

Problem: Query IC50 for COc1cc(N2CCC(N3CCN(C)CC3)CC2)c(CC2CC2)cc1Nc1ncc(Cl)c(Nc2ccc3nccnc3c2N(C)S(=O)(=O)C2CC2)n1 [Compound I-238]
Result: 50 to 500 nM

Problem: Give IC50 for COc1nc(N2CCC(N3CCN(C)CC3)CC2)ccc1Nc1ncc(C(F)(F)F)c(Nc2ccc3nccnc3c2N(C)S(C)(=O)=O)n1 [Compound I-197]
Result: 50 to 500 nM

Problem: Tell me IC50 reported for COc1cc(N2CCC(N3CCN(C)CC3)CC2)ccc1Nc1ncc(Cl)c(Nc2ccc3nccnc3c2N(C)S(C)(=O)=O)n1 [Compound I-18]
Result: 50 to 500 nM

Problem: Provide measured IC50 value, entry: CCc1cc(Nc2ncc(Cl)c(Nc3ccc4nccnc4c3N(C)S(=O)(=O)C3CC3)n2)c(OC)cc1N1CCC(N2CCN(C)CC2)CC1 [Compound I-120]
Result: ≤ 50 nM

Problem: // Input: COc1cc(N2CCC(N(C)C)CC2)c(C)cc1Nc1ncc(Cl)c(Nc2ccc3nccnc3c2N(C)S(C)(=O)=O)n1 [Compound I-169] . Output its IC50 only.
Result: ≤ 50 nM

Problem: Name the recorded IC50 of the item COc1cc(N2CCC(N3CCN(C)CC3)CC2)c(C)cc1Nc1ncc(Cl)c(Nc2ccc3nccnc3c2N(C)S(C)(=O)=O)n1 [Compound I-19] in your answer.
Result: ≤ 50 nM

Attribution: patent US20230310428A1
